Provenance of the data: patent US20240132578A1

- MEASURED_ON: HIV-1 IAVI-C18 Env (clade C pseudovirus) (HIV-1)
- ASSAY_NOTES: cell-based or functional assay
MEASUREMENT_TYPE: IC50 (µg/mL), pseudovirus neutralization
Give a bare numeral; the unit µg/mL is implied.

| BINDER | UNIT_SPEC | VALUE |
| --- | --- | --- |
| 1443_C16 (PG16) (TCN-116) (antibody, V domains shown) VH: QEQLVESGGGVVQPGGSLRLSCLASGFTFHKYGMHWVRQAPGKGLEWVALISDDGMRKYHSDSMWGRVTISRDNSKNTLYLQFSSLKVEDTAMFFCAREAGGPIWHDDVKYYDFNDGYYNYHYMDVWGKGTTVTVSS VL: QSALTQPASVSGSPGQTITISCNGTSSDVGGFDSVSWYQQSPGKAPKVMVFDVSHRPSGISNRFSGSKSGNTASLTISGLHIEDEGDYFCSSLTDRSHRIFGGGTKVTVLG | µg/mL | 0.007 |

Next up:
Task: Query: IC50 (µg/mL), pseudovirus neutralization; subject: 1496_C09 (PG9) (TCN-109) (antibody, V domains shown) VH: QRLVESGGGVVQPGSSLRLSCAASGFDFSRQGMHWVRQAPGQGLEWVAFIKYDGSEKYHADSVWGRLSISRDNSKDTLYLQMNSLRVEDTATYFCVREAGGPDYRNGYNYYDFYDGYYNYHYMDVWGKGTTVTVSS VL: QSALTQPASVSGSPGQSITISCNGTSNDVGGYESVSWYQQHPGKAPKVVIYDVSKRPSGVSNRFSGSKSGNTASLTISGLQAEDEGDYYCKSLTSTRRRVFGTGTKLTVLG
Result: 0.05
